# Tested on: Danio rerio larvae (5 dpf)
# method: difference in combined optomotor response to red, green and blue moving lines vs DMSO (percentage points); higher = stronger optomotor response than DMSO
# condition.details: 10 µM; exposure time 6 h
Structures can show the parent of a compound that is named as a salt.
Reported difference values for the following compounds.
Lab note: record the figure alone, no unit after it.

Worked set:
Nc1nc(Cl)nc2c1ncn2[C@@H]1O[C@H](CO)[C@@H](O)[C@@H]1F [Clofarabine]: 1.77
COCC1=C(C(=O)O)N2C(=O)[C@@H](NC(=O)/C(=N\OC)c3csc(N)n3)[C@H]2SC1 [Cefpodoxime]: 7.24
NC(=O)[C@@H]1CC[C@@H]2CN1C(=O)N2OS(=O)(=O)O [Avibactam (sodium salt)]: 6.37
Cc1cc(Nc2ncc(Cl)c(Nc3ccccc3S(=O)(=O)C(C)C)n2)c(OC(C)C)cc1C1CCNCC1 [Ceritinib]: -1.6
COC(=O)N(C)c1c(N)nc(-c2nn(Cc3ccccc3F)c3ncccc23)nc1N [Riociguat]: -2.92

(Q) Please give the documented difference of COC1=CC(=O)C[C@@H](C)[C@]12Oc1c(Cl)c(OC)cc(OC)c1C2=O [Griseofulvin]
(A) 8.4

(Q) Please give the documented difference of CN1C(C(=O)Nc2ccccn2)=C(O)c2ccccc2S1(=O)=O [Piroxicam]
(A) -0.889

====

# System: Danio rerio larvae (5 dpf)
# method: difference in habituation to acoustic stimuli vs DMSO (percentage points); higher = more habituation than DMSO
# condition.details: 10 µM; exposure time 6 h
Reported difference in habituation to acoustic stimuli values for the following molecules.
Lab note: record the figure alone, no unit after it.

NS(=O)(=O)c1cc(Cl)c(Cl)c(S(N)(=O)=O)c1 [Dichlorphenamide]: -4.78
CN1C(C(=O)Nc2ccccn2)=C(O)c2ccccc2S1(=O)=O: -1.73
O=c1[nH]c(=O)n([C@H]2C[C@H](O)[C@@H](CO)O2)cc1C(F)(F)F: -4.69
Nc1ccc(O)c(C(=O)O)c1: 1.77
CC(=O)O[C@H]1C[C@@H]2CC[C@@H]3[C@H](CC[C@@]4(C)[C@H]3C[C@H]([N+]3(C)CCCCC3)[C@@H]4OC(C)=O)[C@@]2(C)C[C@@H]1N1CCCCC1 [Vecuronium (bromide)]: 3.25
CCCCN1CCCCC1C(=O)Nc1c(C)cccc1C (stereo not drawn): 2.63
CC(C)N(CCCCOCC(=O)NS(C)(=O)=O)c1cnc(-c2ccccc2)c(-c2ccccc2)n1: 5.08

Below: the item to evaluate.
(Q) Look up and report measured difference in habituation to acoustic stimuli (Danio rerio larvae (5 dpf)) for the following molecule: CCCC1O[C@@H]2C[C@H]3[C@@H]4CCC5=CC(=O)C=C[C@]5(C)[C@H]4[C@@H](O)C[C@]3(C)[C@]2(C(=O)CO)O1 (stereo partly drawn) [Budesonide]
(A) -2.87

Source of measurements: the supplement of paper PMC10515830
